Test system: K98450-129-R-PDC multicell spheroids, viability
TEST NAME: Anticancer human tumor K98450-129-R-PDC patient-derived colon adenocarcinoma cell line growth inhibition [PI3K]
CONDITION INFO: second compound 0.0316 µM; first compound 10 µM; stronger effect = lower value
Form field: viability, T/C (one value per entry).
Give the quantity in %, number only.

Worked examples, 5 compounds total:
- COMPOUND: "C=CC(=O)N1CCN(c2nc(=O)n(-c3c(C)ccnc3C(C)C)c3nc(-c4c(O)cccc4F)c(F)cc23)C(C)C1 (stereo not given) + CC(Nc1ccc2c(c1)OCCn1cc(N3C(=O)OCC3C(F)F)nc1-2)C(N)=O"
  ASSAYED SYSTEM: "K98450-129-R-PDC multicell spheroids, viability"
  MEASUREMENT UNITS: "%"
  viability, T/C: 31
- COMPOUND: "CC1(C)CCC(Nc2ncc(C(F)(F)F)c(-c3c[nH]c4c(P(C)(C)=O)c(C#N)ccc34)n2)CN1 (stereo not given) + CC(Nc1ncnc2nc[nH]c12)c1cc2cccc(Cl)c2c(=O)n1-c1ccccc1"
  ASSAYED SYSTEM: "K98450-129-R-PDC multicell spheroids, viability"
  MEASUREMENT UNITS: "%"
  viability, T/C: 44.5
- COMPOUND: "C[C@@H](NC(=O)c1ncnc(N)c1Cl)c1ncc(C(=O)Nc2cc(C(F)(F)F)c(Cl)cn2)s1 + Cc1nc(NC(=O)N2CCCC2C(N)=O)sc1-c1ccnc(C(C)(C)C(F)(F)F)c1"
  ASSAYED SYSTEM: "K98450-129-R-PDC multicell spheroids, viability"
  MEASUREMENT UNITS: "%"
  viability, T/C: 103
- COMPOUND: "C[C@@H](NC(=O)c1ncnc(N)c1Cl)c1ncc(C(=O)Nc2cc(C(F)(F)F)c(Cl)cn2)s1 + COc1c(OCCCN2CCOCC2)ccc2c3n(c(=NC(=O)c4cnc(N)nc4)nc12)CCN3"
  ASSAYED SYSTEM: "K98450-129-R-PDC multicell spheroids, viability"
  MEASUREMENT UNITS: "%"
  viability, T/C: 78.7
- COMPOUND: "CC(Cn1ccc(-c2ccc(C#N)c(Cl)c2)n1)NC(=O)c1cc(C(C)O)[nH]n1 (stereo not given) + Cc1nc(NC(=O)N2CCCC2C(N)=O)sc1-c1ccnc(C(C)(C)C(F)(F)F)c1"
  ASSAYED SYSTEM: "K98450-129-R-PDC multicell spheroids, viability"
  MEASUREMENT UNITS: "%"
  viability, T/C: 103

Req: Using K98450-129-R-PDC multicell spheroids, viability as the test system, report measured viability, T/C of CC(C)NCC(C(=O)N1CCN(c2ncnc3c2C(C)CC3O)CC1)c1ccc(Cl)cc1 (stereo not given) + Cc1nc(NC(=O)N2CCCC2C(N)=O)sc1-c1ccnc(C(C)(C)C(F)(F)F)c1 .
Resp: 102

---

Tested on: K98450-129-R-PDC multicell spheroids, viability
TEST NAME: Anticancer human tumor K98450-129-R-PDC cell line growth inhibition [PI3K];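 note: spheroids exposed to agents for seven days before read-out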
CONDITION INFO: compound 3.16 µM; stronger effect = lower value
RECORDED METRIC: viability, T/C

Worked examples, 3 molecules total:
- MOLECULE: "CC1(C)CCC(CN2CCN(c3ccc(C(=O)NS(=O)(=O)c4ccc(NCC5CCOCC5)c([N+](=O)[O-])c4)c(Oc4cnc5[nH]ccc5c4)c3)CC2)=C(c2ccc(Cl)cc2)C1"
  viability, T/C: "94.5% [middle of 4 runs]"
- MOLECULE: "CC1(C)CCC(Nc2ncc(C(F)(F)F)c(-c3c[nH]c4c(P(C)(C)=O)c(C#N)ccc34)n2)CN1 (centres undefined)"
  viability, T/C: "66.8% [middle of 4 runs]"
- MOLECULE: "Cn1ncc(Cl)c1-c1cc(C(=O)NC(CN)Cc2cccc(F)c2)sc1Cl (centres undefined)"
  viability, T/C: "92.7% [middle of 4 runs]"

As a next step, examine the molecule that follows.
Req: Provide measured viability, T/C value, entry: CC(C)NCC(C(=O)N1CCN(c2ncnc3c2C(C)CC3O)CC1)c1ccc(Cl)cc1 (centres undefined)
Resp: 93% [middle of 4 runs]

---

Test system: K98450-129-R-PDC multicell spheroids, viability
TEST NAME: Anticancer human tumor K98450-129-R-PDC cell line growth inhibition [PI3K];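 note: spheroids exposed to agents for seven days before read-out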
CONDITION INFO: second compound 0.0316 µM; first compound 3.16 µM; stronger effect = lower value
Form field: viability, T/C (one value per entry).
Give the quantity in %, number only.

- MOLECULE: "C#Cc1c(F)ccc2cc(O)cc(-c3ncc4c(N5CC6CCC(C5)N6)nc(OCC56CCCN5CC(F)C6)nc4c3F)c12 (stereo not drawn) + COc1c(OCCCN2CCOCC2)ccc2c3n(c(=NC(=O)c4cnc(N)nc4)nc12)CCN3"
  ASSAYED SYSTEM: "K98450-129-R-PDC multicell spheroids, viability"
  viability, T/C / %: 85.6
- MOLECULE: "C[C@@H](NC(=O)c1ncnc(N)c1Cl)c1ncc(C(=O)Nc2cc(C(F)(F)F)c(Cl)cn2)s1 + Cc1nc(NC(=O)N2CCCC2C(N)=O)sc1-c1ccnc(C(C)(C)C(F)(F)F)c1"
  ASSAYED SYSTEM: "K98450-129-R-PDC multicell spheroids, viability"
  viability, T/C / %: 112

Req: Provide measured viability, T/C value, entry: C=CC(=O)N1CCN(c2nc(=O)n(-c3c(C)ccnc3C(C)C)c3nc(-c4c(O)cccc4F)c(F)cc23)C(C)C1 (stereo not drawn) + CC(Nc1ncnc2nc[nH]c12)c1cc2cccc(Cl)c2c(=O)n1-c1ccccc1
Resp: 53.3

---

Form field: viability, T/C (one value per entry).
Test system: K98450-129-R-PDC multicell spheroids, viability
TEST NAME: Anticancer human tumor K98450-129-R-PDC cell line growth inhibition [PI3K];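 note: spheroids exposed to agents for seven days before read-out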
CONDITION INFO: second compound 0.0316 µM; first compound 0.316 µM; stronger effect = lower value
Give the quantity in %, number only.

Worked examples, 3 compounds total:
- COMPOUND: "Cn1nccc1Nc1nccc(-c2ccn(C(CO)c3ccc(Cl)c(F)c3)c(=O)c2)n1 (stereo not given) + Cc1nc(NC(=O)N2CCCC2C(N)=O)sc1-c1ccnc(C(C)(C)C(F)(F)F)c1"
  MEASUREMENT UNITS: "%"
  READING: 103
- COMPOUND: "CC(C)NCC(C(=O)N1CCN(c2ncnc3c2C(C)CC3O)CC1)c1ccc(Cl)cc1 (stereo not given) + Cc1nc(NC(=O)N2CCCC2C(N)=O)sc1-c1ccnc(C(C)(C)C(F)(F)F)c1"
  MEASUREMENT UNITS: "%"
  READING: 107
- COMPOUND: "CCCS(=O)(=O)Nc1ccc(F)c(C(=O)c2c[nH]c3ncc(-c4ccc(Cl)cc4)cc23)c1F + Cc1nc(NC(=O)N2CCCC2C(N)=O)sc1-c1ccnc(C(C)(C)C(F)(F)F)c1"
  MEASUREMENT UNITS: "%"
  READING: 101

Req: Provide measured viability, T/C value, entry: CNC(=O)c1ccc(N2C(=S)N(c3ccc(C#N)c(C(F)(F)F)c3)C(=O)C2(C)C)cc1F + Cc1nc(NC(=O)N2CCCC2C(N)=O)sc1-c1ccnc(C(C)(C)C(F)(F)F)c1
Resp: 106

Req: Provide measured viability, T/C value, entry: CC(Cn1ccc(-c2ccc(C#N)c(Cl)c2)n1)NC(=O)c1cc(C(C)O)[nH]n1 (stereo not given) + CC(Nc1ncnc2nc[nH]c12)c1cc2cccc(Cl)c2c(=O)n1-c1ccccc1
Resp: 87.3

---

Test system: K98450-129-R-PDC multicell spheroids, viability
TEST NAME: Anticancer human tumor K98450-129-R-PDC cell line growth inhibition [PI3K];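 note: spheroids exposed to agents for seven days before read-out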
CONDITION INFO: second compound 0.01 µM; first compound 3.16 µM; stronger effect = lower value
Form field: viability, T/C (one value per entry).
Give the quantity in %, number only.

Worked examples, 5 molecules total:
- MOLECULE: "CNC(=O)c1ccc(N2C(=S)N(c3ccc(C#N)c(C(F)(F)F)c3)C(=O)C2(C)C)cc1F + COc1c(OCCCN2CCOCC2)ccc2c3n(c(=NC(=O)c4cnc(N)nc4)nc12)CCN3"
  viability, T/C, %: 100
- MOLECULE: "Cn1nccc1Nc1nccc(-c2ccn(C(CO)c3ccc(Cl)c(F)c3)c(=O)c2)n1 (stereo unspecified) + CC(Nc1ccc2c(c1)OCCn1cc(N3C(=O)OCC3C(F)F)nc1-2)C(N)=O"
  viability, T/C, %: 98.8
- MOLECULE: "CC1(C)CCC(Nc2ncc(C(F)(F)F)c(-c3c[nH]c4c(P(C)(C)=O)c(C#N)ccc34)n2)CN1 (stereo unspecified) + COc1c(OCCCN2CCOCC2)ccc2c3n(c(=NC(=O)c4cnc(N)nc4)nc12)CCN3"
  viability, T/C, %: 67.3
- MOLECULE: "Cn1nccc1Nc1nccc(-c2ccn(C(CO)c3ccc(Cl)c(F)c3)c(=O)c2)n1 (stereo unspecified) + COc1c(OCCCN2CCOCC2)ccc2c3n(c(=NC(=O)c4cnc(N)nc4)nc12)CCN3"
  viability, T/C, %: 77.4
- MOLECULE: "CCCS(=O)(=O)Nc1ccc(F)c(C(=O)c2c[nH]c3ncc(-c4ccc(Cl)cc4)cc23)c1F + CC(Nc1ccc2c(c1)OCCn1cc(N3C(=O)OCC3C(F)F)nc1-2)C(N)=O"
  viability, T/C, %: 148

As a next step, examine the molecule that follows.
Req: Using K98450-129-R-PDC multicell spheroids, viability as the test system, report measured viability, T/C of CC1(C)CCC(Nc2ncc(C(F)(F)F)c(-c3c[nH]c4c(P(C)(C)=O)c(C#N)ccc34)n2)CN1 (stereo unspecified) + CC(Nc1ccc2c(c1)OCCn1cc(N3C(=O)OCC3C(F)F)nc1-2)C(N)=O .
Resp: 67.2
